meta.source: the supplement of paper PMC11061612

Test system: ML-2 (Acute Myeloid Leukemia);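 note: after 72 h of two-drug dosing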
Experiment: Bliss excess, mean over the matrix (fraction); higher = more synergy
Measured quantity: Bliss excess
Output: the number by itself.

// solved cases for Bliss excess follow
compound="Cc1c2c(nn1C)CSCc1cc(n(C)n1)CSc1cc(c3ccccc3c1)OCCCc1c(C(=O)O)n(C)c3c-2c(Cl)ccc13 [AZD5991] + Cn1cnc2c(F)c(Nc3ccc(Br)cc3Cl)c(C(=O)NOCCO)cc21 [Selumetinib] (first compound max 1 µM, 7x7, partner max 3 µM)" target_or_system="ML-2 (Acute Myeloid Leukemia)" measured_quantity="Bliss excess" result_value=0.0659
compound="Cc1c2c(nn1C)CSCc1cc(n(C)n1)CSc1cc(c3ccccc3c1)OCCCc1c(C(=O)O)n(C)c3c-2c(Cl)ccc13 [AZD5991] + CC(=O)O[C@H]1C(=O)[C@@]2(C)[C@H]([C@H](OC(=O)c3ccccc3)[C@]3(O)C[C@H](OC(=O)[C@H](O)[C@@H](NC(=O)c4ccccc4)c4ccccc4)C(C)=C1C3(C)C)[C@]1(OC(C)=O)CO[C@@H]1C[C@@H]2O [Paclitaxel] (first compound max 1 µM, 7x7, partner max 3 µM)" target_or_system="ML-2 (Acute Myeloid Leukemia)" measured_quantity="Bliss excess" result_value=0.0157

Then there is this compound:
According to the records, this compound COc1cccc(OCCCN)c1-c1cc(Nc2cnc(C#N)cn2)n[nH]1 [Prexasertib] + C[C@@H]1COCCN1C2=NC(=NC(=C2)C3(CC3)[S@](=N)(=O)C)C4=C5C=CNC5=NC=C4 [AZD6738] (first compound max 1 µM, 7x7, partner max 10 µM) displays Bliss excess of -0.0361

* * *

Tested on: MOLT-4 (T-Lymphoblastic Leukemia)
Assay: combination Emax (second highest fraction inhibited in the dose matrix, 72 h); higher = more inhibition; extreme values may be limits of the assay
Here, each record is paired with measured combination Emax data.
Output: the number by itself.

molecule="COc1nnc2ccc(N3CCC(c4ccc(OCCN5CCN(C)C(=O)[C@H]5C)cc4)CC3)nn12 [AZD5153] + Cc1c2c(nn1C)CSCc1cc(n(C)n1)CSc1cc(c3ccccc3c1)OCCCc1c(C(=O)O)n(C)c3c-2c(Cl)ccc13 [AZD5991] (first compound max 1 µM, 7x7, partner max 1 µM)" target_or_system="MOLT-4 (T-Lymphoblastic Leukemia)" result_value=0.95

According to the records, this molecule C[C@@H](Oc1cc(-c2cnn(C3CCNCC3)c2)cnc1N)c1c(Cl)ccc(F)c1Cl [Crizotinib] + CC1=C(C(=CC=C1)Cl)NC(=O)C2=CN=C(S2)NC3=CC(=NC(=N3)C)N4CCN(CC4)CCO [Dasatinib] (first compound max 10 µM, 7x7, partner max 2 µM) displays combination Emax of 0.826

According to the records, this molecule CC(=O)c1c(C)c2cnc(Nc3ccc(N4CCNCC4)cn3)nc2n(C2CCCC2)c1=O [Palbociclib] + Cc1c2c(nn1C)CSCc1cc(n(C)n1)CSc1cc(c3ccccc3c1)OCCCc1c(C(=O)O)n(C)c3c-2c(Cl)ccc13 [AZD5991] (first compound max 10 µM, 7x7, partner max 1 µM) displays combination Emax of 0.9

According to the records, this molecule N#Cc1cnc(Nc2cc(NC[C@H]3CNCCO3)c(C(F)(F)F)cn2)cn1 [SRA737] + CCc1c2c(nc3ccc(O)cc13)-c1cc3c(c(=O)n1C2)COC(=O)[C@]3(O)CC [SN-38] (first compound max 10 µM, 7x7, partner max 0.3 µM) displays combination Emax of 1
